Reported TGI values follow for various compounds
# Tested on: COLO 205 colon
# Measurement Description: NCI tumour cell line growth inhibition, 48 h
Test Readout: TGI

> print(dat)
                                    compound    reading
 1  CC1=CC(c2ccccc2)OP1(=O)c1ccccc1 (configuration not stated)   > 100 µM
 2  O=C1C2=C(C(=O)c3c(O)ccc(O)c31)N(c1ccc(N3CCOCC3)nc1)Cc1ccccc1O2   0.318 µM
 3  C=CCN1C(=O)/C(=c2\sc3n(c2=O)C2C(NN=3)N(CC)C(=O)N2CC)c2ccccc21 (configuration not stated)  > 20.4 µM
 4  CCOC(=O)C1=C(Nc2ccccc2)OC/C1=N\NC(=O)Cc1ccccc1    > 50 µM
 5  OC(c1cc(C(O)(C(F)(F)F)C(F)(F)F)ncn1)(C(F)(F)F)C(F)(F)F    > 10 µM
 6  Nn1c(CNc2ccc(-c3nnc(Nc4ccc(Cl)cc4)n3N)cc2)nnc1Nc1ccc(Cl)cc1   > 100 µM
 7  COc1ccc(-c2cc(-c3ccccc3)n(C3OC(COC(C)=O)C(OC(C)=O)C(OC(C)=O)C3OC(C)=O)c(=S)c2C#N)cc1 (configuration not stated)    23.4 µM
 8  COC(=O)C12CCC(C(=O)OC)(Cc3c(c4ccccc4n3S(=O)(=O)c3ccccc3)C1)C2=O (configuration not stated)   > 100 µM
 9  O=C(CC(=O)N1N=C(n2ccc3ccccc32)CC1c1ccccc1)Nc1cccc(Cl)c1 (configuration not stated)   > 100 µM
10                                     COCCO   > 100 µM
11  CC(=O)OC1C=CC2CCN3C(=O)c4cc5c(cc4[C@H]1C23)OCO5 (some centres not stated)   > 100 µM
12  COc1cc2c(cc1C)NC(=O)/C2=C/c1c(Cl)[nH]c2cc(C)c(OC)cc12    12.7 µM
13  CSCCC(NC(=O)C(Cc1ccccc1)NC(=O)CNC(=O)CNC(=O)C(N)Cc1ccc(O)cc1)C(=O)O (configuration not stated)   > 100 µM
14  CCOP(=O)(CCP(=O)(OCC)OCC)OCC.C[CH2][Sn]([Cl])([Cl])[CH2]C    50.9 µM
15  O=C1CCCCC/C=C2/CC[C@H](Sc3ccccc3)[C@@H]12   > 100 µM
16  C/C(CN1C(=O)c2ccccc2C1=O)=N\NS(=O)(=O)c1ccccc1   > 100 µM
17      COCCc1c(C)c(C#N)c2n(C)c3ccccc3n2c1=O    > 10 µM

###

Target or system MOLT-4 leukemia; recorded quantity GI50.

Mol Smiles	GI50
COC(=O)[C@]12CC[C@@H](C)[C@H](C)[C@@H]1C1=CC[C@@H]3[C@@]4(C)C[C@@H](OC(=O)c5ccco5)[C@H](O)[C@@](C)(CO)[C@@H]4[C@H](O)C[C@@]3(C)[C@]1(C)CC2	2.04 µM
COc1cc(CNC(=O)/C=C/C=C/c2ccc3c(c2)OCO3)ccc1OCc1cn(-c2ccc(Cl)c(Cl)c2)nn1	0.738 µM
CCCCCCN(CCCCCC)CCCNc1nccc2ccccc12	2.56 µM

###

# System: HCT-116 colon
Test Readout: GI50

> print(dat)
                                    molecule            tgt    reading
 1  O=C(CCCn1c2c(sc3ncccc32)c(=O)n2nnc(-c3ccccc3)c12)NCCc1cnc[nH]1  HCT-116 colon   0.378 µM
 2  CCCc1cc(=O)oc2c(C(=O)CC(C)C)c(O)c(CC=C(C)C)c(O)c12  HCT-116 colon    8.59 µM
 3  COc1cc2c(cc1OCCCCNC(=O)c1cc3ccccc3[nH]1)N=CC1CCCN1C2=O (stereo not given)  HCT-116 colon    35.9 µM
 4        COc1ccc(CN2c3ccccc3Sc3ccccc32)cc1F  HCT-116 colon   0.437 µM
 5  O=C1NC(=NCC(CO)c2ccccc2)S/C1=C\c1ccc2ncccc2c1 (stereo not given)  HCT-116 colon    8.51 µM
 6  CC(C)=CC/C=C(/C)[C@H]1CC[C@]2(C)[C@@H]1CC[C@@H]1[C@@]3(C)CCC(=O)NC(C)(C)[C@@H]3CC[C@]12C  HCT-116 colon      15 µM
 7  CN(C)CC(C(=O)c1ccccc1)c1ccccc1 (stereo not given)  HCT-116 colon    1.03 µM
 8  O=C(Oc1cccnc1)c1ccccc1Nc1ccnc(C(F)(F)F)c1  HCT-116 colon  0.0342 µM
 9  N#Cc1ccc(Oc2nccc(-c3c(-c4ccc(F)cc4)ncn3C3CCNCC3)n2)cc1  HCT-116 colon    5.45 µM
10  CSC1=Nc2c(c(C)c(-c3ccccc3)n2COC(CO)CO)C2=NC(=O)C(C)N12 (stereo not given)  HCT-116 colon   > 100 µM
